Where these numbers come from: paper PMC13089524

target: SYK(S550Y)-NL (Homo sapiens, UniProt P43405, S550Y); construct: host or cells: HEK293; assay: NanoBRET cellular target engagement assay in intact live HEK293 cells, SYK(S550Y)-NL; assay type: cell-based; conditions: tracer titration, [Tracer] 7.8 nM; read-out: IC50, SYK(S550Y)-NL + 8 + MRL-SYKi
measuredProperty: IC50 (nM)
The reply should be a number in nM, with the unit left off.

Note to self: IC50 recorded for Cc1cc(Nc2nccc(C)n2)cc(-c2cnc([C@@]3(O)CC[C@H](C(=O)O)C(C)(C)C3)s2)c1 was 27

###

target: SYK(WT)-NL (Homo sapiens); construct: SYK tracers enable BRET with full-length SYK(WT) after digitonin permeabilization; test: NanoBRET assay in digitonin permeabilized HEK293 cells, SYK(WT)-NL; conditions: relative to MRL-SYKi (20 μM) treated cells, single experiment, read-out: EC50 of tracer, SYK(variant)-NL WT
measuredProperty: EC50 (nM)
Note: unit nM is implicit; provide only the numeric part.

Consider Cc1cc(Nc2nccc(C)n2)cc(-c2cnc([C@@]3(O)CC[C@H](C(=O)NCCCNC(=O)CCc4ccc5n4[B-](F)(F)[N+]4=C(c6ccc[nH]6)C=CC4=C5)C(C)(C)C3)s2)c1 [Tracer 8] . Its measured EC50 is 39

###

target: SYK(P342T)-NL (Homo sapiens, UniProt P43405, P342T); construct: host or cells: HEK293; assay: NanoBRET assay in digitonin permeabilized HEK293 cells, SYK(P342T)-NL; assay type: cell-based; conditions: relative to MRL-SYKi (20 μM) treated cells, single experiment, read-out: EC50 of tracer, SYK(variant)-NL P342T
measuredProperty: EC50 (nM)
The reply should contain only the number, in nM.

The reported EC50 value, SYK(P342T)-NL (Homo sapiens, UniProt P43405, P342T), for Cc1cc(Nc2nccc(C)n2)cc(-c2cnc([C@@]3(O)CC[C@H](C(=O)NCCCNC(=O)CCc4ccc5n4[B-](F)(F)[N+]4=C(c6ccc[nH]6)C=CC4=C5)C(C)(C)C3)s2)c1 reads 9

###

target: SYK(M450I)-NL (Homo sapiens, UniProt P43405, M450I); assay: NanoBRET assay in digitonin permeabilized HEK293 cells, SYK(M450I)-NL; conditions: relative to MRL-SYKi (20 μM) treated cells, single experiment, read-out: EC50 of tracer, SYK(variant)-NL M450I
measuredProperty: pEC50
Remember, pEC50 is on a log scale: it is -log10 of the molar concentration.

Given item Cc1cc(Nc2nccc(C)n2)cc(-c2cnc([C@@]3(O)CC[C@H](C(=O)NCCCNC(=O)CCc4ccc5n4[B-](F)(F)[N+]4=C(c6ccc[nH]6)C=CC4=C5)C(C)(C)C3)s2)c1 , the value recorded as its pEC50 is 7.19

###

IC50 values, listed per item
molecular target: SYK(S550F)-NL (Homo sapiens, UniProt P43405, S550F); construct: host or cells: HEK293; experiment: NanoBRET cellular target engagement assay in intact live HEK293 cells, SYK(S550F)-NL; format: cell-based; conditions: intact HEK293 cells, 125 nM tracer 8, average of triplicate ± SEM; read-out: SYK(S550F) IC50
Please state the figure in nM; there is no need to write the unit.

INSERT INTO results (molecule, measured) VALUES
  ('CCS(=O)(=O)N1CCN(c2ccc(Nc3ncc(C(N)=O)c(NC4CC4)n3)cc2)CC1 [Cerdulatinib]', 170);

Now examine the next entry.
Record summary for Cc1cc(Nc2nccc(C)n2)cc(-c2cnc([C@@]3(O)CC[C@H](C(=O)O)C(C)(C)C3)s2)c1 [MRL-SYKi] : reported IC50 = 250
